Assay: SK-BR-3 cell growth inhibitors, pilot screen, 24 h, human (AID 572);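 also: compound exposure lasted between 18 and 24 h rather than exactly 24 h; 100% = carrier-treated control wells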
Settings: SK-BR-3 viability, CellTiter-Glo luminescence, at 10 µM, stronger effect = lower value
Label YES when viability is strictly below 90%; otherwise label NO.

These solved cases illustrate the format of a correct answer.
CCCOC(=O)CSc1nc(N)c(C#N)c(CC)c1C#N; NO
Cc1cccc(N2CN=c3s/c(=C\c4ccncc4)c(=O)n3C2)c1; YES
COc1ccc2c(-c3cccnc3)cc(=O)[nH]c2c1; NO
CCSc1cc(C2C(C(=O)OC)=C(C)NC3=C2C(=O)CCC3)c(C)o1 (stereo not given); YES

# check: viability < 90% for O=C(CN(C(=O)CCC(=O)Nc1nccs1)c1ccccc1F)NCC1CCCO1 (stereo not given) NO

# check: viability < 90% for CC(=O)c1cc(F)c(N2CCN(C(=O)Cc3ccccc3)CC2)cc1C NO

# check: viability < 90% for O=C(Nc1ccccc1C(=O)N1CCCCCC1)c1cccc(S(=O)(=O)N2CCOCC2)c1 NO

# check: viability < 90% for O=C(Nc1c(-c2ccccc2)nc2ccccn12)c1ccco1 NO

----------
Experiment: growth inhibitors of H69AR lung tumor, primary screen, human, duplicate replicates (AID 580);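 also: 100% = mean luminescence of untreated wells and 0% = no signal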
Conditions: H69AR lung tumor cells viability, ATP luminescence, 72 h; at 10 µM; stronger effect = lower value
Property measured: viability (%)
One number for each entry, in %.

The examples below pair each entry with its known result.
C[C@]12C[C@H](O)[C@H]3[C@@H](CCC4=CC(=O)CC[C@@]43C)[C@@H]1CC[C@@H]2C(=O)CO; 88.3
CCOC(=O)C1CCCN(c2c(NCc3ccco3)c(=O)c2=O)C1 (configuration not stated); 94.3
CCCCn1nnc(NC(=O)c2cc3ccccc3o2)n1; 81.6
COCCN(C(=O)CCC(=O)Nc1ccccn1)C(C(=O)NC1CCCC1)c1ccc(OC)cc1 (configuration not stated); 111
C/C(N)=C(/C#N)C(=O)COC(=O)COc1ccc(Cl)cc1; 91.9

Could you report viability for every entry in the following list?
1. CCCCN(CCCC)CCCOC(=O)c1ccc(N)cc1
2. C[C@@H]1C[C@H]2[C@@H]3CCC4=CC(=O)C=C[C@]4(C)[C@@]3(F)[C@@H](O)C[C@]2(C)[C@H]1C(=O)CO
3. CCOC(=O)c1[nH]c(C)c(C(=O)N2CCN(C(=O)c3ccco3)CC2)c1C
4. CC(O)c1nc2ccccc2n1C1CCCCC1 (configuration not stated)
5. Cn1c(-c2ccccc2)cc(=O)c2ccccc21
6. COc1cccc(CNC(=O)C2CCN(C(=O)N(C)C)CC2)c1
7. NC(=O)COC(=O)c1ccc(S(=O)(=O)N2CCCCCC2)cc1
8. OCCOCCN1CCN(C(c2ccccc2)c2ccc(Cl)cc2)CC1 (configuration not stated)

90.7
91.2
97.8
97.2
96.6
92.2
88
98.3

Could you report viability for every entry in the following list?
1. O=C(O)CCCCCNc1nc(=S)[nH]c2ccccc12
2. CCOC(=O)c1[nH]nc(N)c1NC(=O)c1ccc(Cl)cc1Cl
3. CCc1nc2sc3c(c2c(=O)o1)CCCC3
4. COC(=O)c1cnn2c(C(F)(F)F)cc(-c3ccco3)nc12

[89.3, 87.8, 96.3, 64.8]

Could you report viability for every entry in the following list?
1. CCOC(=O)C1CCN(S(=O)(=O)c2cc(Cl)c(C)cc2OC)CC1
2. O=C(NCc1ccccn1)C(C(=O)c1ccc(F)cc1)n1ccccc1=O (configuration not stated)
3. CS(=O)(=O)Nc1ccc(C(=O)NCCc2ccccc2)cc1
4. CCS(=O)(=O)Nc1ccc(C(=O)CC2(O)C(=O)Nc3ccccc32)cc1 (configuration not stated)
5. CC(C)N(C(=O)CSc1nnc(-c2cc3ccccc3cc2O)n1Cc1ccco1)C(C)C

85.2
96.4
98.3
89.5
83.4

----------
Assay: reversal of MRP1-mediated doxorubicin resistance, pilot screen, H69AR cells, doxorubicin co-treatment (AID 601)
Conditions: H69AR cells, CellTiter-Glo, 72 h; compound alone cytotoxicity; at 10 µM
Label class 1 when viability is strictly below 90%; otherwise label class 0.

These solved cases illustrate the format of a correct answer.
COC(=O)C1=C(C)OC(N)=C(C#N)C1c1c(C)nn(-c2ccccc2)c1Cl (stereo unspecified); class 1
CCc1ccccc1NC(=O)CCc1nc(-c2ccc(C)cc2)no1; class 0
Cc1ccc(-c2nc3ncccc3o2)cc1NC(=O)c1ccco1; class 0
CN(C(=O)c1ccc2c(=O)n3c(nc2c1)CCCCC3)c1ccccc1; class 0
COc1ccc(N2CC(C(=O)Nc3ccc(F)cc3F)CC2=O)cc1 (stereo unspecified); class 0
COc1ccc(C2C(C(=O)NCCN3CCOCC3)c3ccccc3C(=O)N2C2CCCCC2)cc1 (stereo unspecified); class 1
CN1C(=O)CC(C(=O)Nc2ccc(F)cc2)SC1=Nc1ccc2c(c1)OCO2 (stereo unspecified); class 1
CN(C)CCCN1c2ccccc2CCc2ccccc21; class 1
COc1cccc(S(=O)(=O)Nc2cccnc2)c1; class 0
Cc1cc(Nc2ccccc2)n(CCC#N)n1; class 0

# check: viability < 90% for Cc1ncc(CO)c2c1OC(C)(C)OC2 class 0

# check: viability < 90% for Cc1[nH]c(=O)[nH]c(=O)c1S(=O)(=O)N1c2ccc(F)cc2CCC1C (stereo unspecified) class 0

# check: viability < 90% for O=C(c1cn(-c2ccccc2)nc1-c1cccs1)N1CCN(c2ccccn2)CC1 class 1

----------
Please respond with reported differential viability (reversal) for every item in the list.
Assay: reversal of MRP1-mediated doxorubicin resistance, pilot screen, H69AR cells, doxorubicin co-treatment (AID 601)
Conditions: H69AR cells + 2 uM doxorubicin, CellTiter-Glo, 72 h; at 10 µM; stronger effect = higher value
Numbers only, in %.

The examples below pair each entry with its known result.
CCCn1c(-c2ccc(F)cc2)cnc1SCC(=O)O; 3.56
CCOC(=O)N1CCN(C(=O)C2c3cc(OC)c(OC)cc3C(=O)N3CCc4ccccc4C23)CC1 (stereo not given); -0.775
S=c1[nH]nc(-c2cccc(Br)c2)o1; 3.51
CCC(C)(C)n1nnnc1C(c1cc2cc(OC)ccc2[nH]c1=O)N1CCc2ccccc21 (stereo not given); -0.155
CCSc1nnc(NC(=O)C2CCCN(S(=O)(=O)c3cnc[nH]3)C2)s1 (stereo not given); 1.98

Could you report differential viability (reversal) for every entry in the following list?
1. CNC(=O)CSc1nnc(-c2cc(C)cc(C)c2)o1
2. C[C@]12CCC(=O)C=C1CC[C@@H]1[C@@H]2CC[C@@]2(C)[C@H]1CC[C@]2(O)C(=O)CO
3. CC(C)CCn1c(N)c(S(=O)(=O)c2cccs2)c2nc3ccccc3nc21
4. CCn1c(=O)cc(OCC(=O)NC2CCCCC2)c2ccccc21
5. O=C(c1ccc2c(c1)[nH]c(=S)n1c3ccccc3nc21)N1CCN(c2ncccn2)CC1

[13.4, -6.52, -14.9, 9.56, 5.5]

----------
Please respond with reported viability for every item in the list.
Experiment: growth inhibitors of H69AR lung tumor, primary screen, human, duplicate replicates (AID 580);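 also: 100% = mean luminescence of untreated wells and 0% = no signal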
Conditions: H69AR lung tumor cells viability, ATP luminescence, 72 h; at 10 µM; stronger effect = lower value
Give bare numbers, in %.

The examples below pair each entry with its known result.
COc1ccc(-c2cc(C(=O)Nc3ccc(C)cc3)no2)cc1; 99.1
Cc1cc(C)c(OCC(=O)Nc2ccc3c(c2)OCO3)cc1C; 84.5
Clc1ccc(Cn2ncc3c(NCc4cccnc4)ncnc32)cc1; 92
CC(=O)NCCn1c(SCC(=O)NCC2CCCO2)nc2ccccc2c1=O (configuration not stated); 98.5
C=CCn1c(C)cc(C(=O)CSc2nc3ccccc3c(=O)[nH]2)c1C; 77.8
C=CCOc1nc2c(c(=O)n(C)c(=O)n2C)n1Cc1c(Cl)cccc1Cl; 80.4
Cc1ccc(-n2nnnc2SCC(=O)Nc2c(C)n(C)n(-c3ccccc3)c2=O)cc1; 90.8
CN(C)CCOC(c1ccccc1)c1ccccc1 (tested in a mixture with another compound); 103

Could you report viability for every entry in the following list?
1. COc1ccc(C2CC(c3ccc(Cl)cc3)Nc3nc(NC(=O)c4ccco4)nn32)cc1 (configuration not stated)
2. COc1cc2[nH]c(=O)c(C(=O)NCCCN3CCCCC3)c(O)c2cc1OC

[81.2, 98.7]

Could you report viability for every entry in the following list?
1. CCOC(=O)c1c(N)sc(C(=O)N2CCOCC2)c1C
2. O=C(NCc1ccco1)c1cccn2c(=O)c3sccc3nc12
3. CCOc1ccc(Cl)cc1S(=O)(=O)N1CCCC1
4. CCCC(=O)O[C@]1(C(=O)CCl)[C@@H](C)C[C@H]2[C@@H]3CCC4=CC(=O)C=C[C@]4(C)[C@@]3(F)C(=O)C[C@@]21C
5. CCCn1c(SCC(=O)NCCc2ccccc2)nnc1-c1ccccn1
6. N=c1c[n+](N2CCOCC2)[n-]o1
7. Cc1noc(NS(=O)(=O)c2ccc(N3C(=O)c4ccccc4C3=O)cc2)c1C

1. 98.9
2. 58.4
3. 88.8
4. 87.8
5. 93.9
6. 96.5
7. 107

Could you report viability for every entry in the following list?
1. Cc1ccc(S(=O)(=O)N(CC(=O)NCc2ccco2)Cc2ccccc2F)cc1
2. CC(C)CSc1nc2ccccc2n1CC(N)=O
3. Cc1cc(NC(=O)C2=C(O)c3ccccc3S(=O)(=O)N2C)no1
4. C#CC(CO)N(CCN(Cc1ccccc1)C(C#C)CO)Cc1ccccc1 (configuration not stated)
5. COc1ccc(Oc2nc(Oc3ccc(OC)cc3)nc(Oc3ccc(OC)cc3)n2)cc1

107
93.4
112
90.3
94.6
